assay-system: Telomerase reverse transcriptase (Homo sapiens)
Sequence (O14746 whole entry): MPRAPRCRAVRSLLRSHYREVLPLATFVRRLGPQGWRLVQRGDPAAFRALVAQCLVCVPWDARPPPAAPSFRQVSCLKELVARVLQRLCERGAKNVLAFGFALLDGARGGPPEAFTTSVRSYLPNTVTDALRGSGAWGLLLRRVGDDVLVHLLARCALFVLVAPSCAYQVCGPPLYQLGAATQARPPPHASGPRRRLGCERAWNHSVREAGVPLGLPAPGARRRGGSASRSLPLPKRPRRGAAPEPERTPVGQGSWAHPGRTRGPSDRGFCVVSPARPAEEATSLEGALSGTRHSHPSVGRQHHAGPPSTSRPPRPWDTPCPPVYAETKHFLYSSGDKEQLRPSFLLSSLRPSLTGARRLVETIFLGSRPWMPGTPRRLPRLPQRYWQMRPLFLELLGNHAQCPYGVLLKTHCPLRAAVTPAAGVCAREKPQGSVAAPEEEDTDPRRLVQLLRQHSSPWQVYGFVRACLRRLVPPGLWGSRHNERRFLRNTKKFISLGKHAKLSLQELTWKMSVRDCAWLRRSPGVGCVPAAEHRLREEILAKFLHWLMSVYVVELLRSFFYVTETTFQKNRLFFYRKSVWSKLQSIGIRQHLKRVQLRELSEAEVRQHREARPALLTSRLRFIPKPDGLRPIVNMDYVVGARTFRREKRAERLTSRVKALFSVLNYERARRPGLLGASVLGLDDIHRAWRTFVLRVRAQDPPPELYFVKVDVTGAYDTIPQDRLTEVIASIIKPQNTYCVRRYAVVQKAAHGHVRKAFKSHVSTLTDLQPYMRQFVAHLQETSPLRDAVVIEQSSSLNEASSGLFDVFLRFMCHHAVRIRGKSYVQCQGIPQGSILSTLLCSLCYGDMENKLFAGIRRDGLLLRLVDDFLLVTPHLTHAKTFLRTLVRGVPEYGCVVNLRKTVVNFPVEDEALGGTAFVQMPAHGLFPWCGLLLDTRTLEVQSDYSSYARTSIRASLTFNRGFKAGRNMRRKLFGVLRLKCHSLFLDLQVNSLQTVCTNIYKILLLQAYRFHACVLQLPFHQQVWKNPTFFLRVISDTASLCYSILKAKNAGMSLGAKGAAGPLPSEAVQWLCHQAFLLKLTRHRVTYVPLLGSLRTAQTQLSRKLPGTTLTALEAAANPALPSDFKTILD
experiment: Effect on human TERT expressed in BJ1 cells at 100 uM after 24 hrs by SEAP assay relative to control
run-parameters: BJ
measure-name: residual activity (%)

{"test-smiles": "CC(=O)Nc1ccc2c(c1)C(=O)c1cc(NC(C)=O)ccc1C2=O", "endpoint-result": 117}
{"test-smiles": "O=C1c2ccc([N+](=O)[O-])cc2C(=O)c2cc([N+](=O)[O-])ccc21", "endpoint-result": 65}
{"test-smiles": "CN(C)CC(=O)Nc1ccc2c(c1)C(=O)c1cc(NC(=O)CN(C)C)ccc1C2=O", "endpoint-result": 3}

I: O=C(Cc1ccccc1)Nc1ccc2c(c1)C(=O)c1cc(NC(=O)Cc3ccccc3)ccc1C2=O
II: O=C(CCN1CCNCC1)Nc1ccc2c(c1)C(=O)c1cc(NC(=O)CCN3CCNCC3)ccc1C2=O
Lookup: Between I and II , which one shows the larger residual activity value? Reply with the label of the item you choose.
Found: II
